# assayed system: Androgen receptor (Homo sapiens, UniProt P10275)
# Sequence (P10275 whole entry): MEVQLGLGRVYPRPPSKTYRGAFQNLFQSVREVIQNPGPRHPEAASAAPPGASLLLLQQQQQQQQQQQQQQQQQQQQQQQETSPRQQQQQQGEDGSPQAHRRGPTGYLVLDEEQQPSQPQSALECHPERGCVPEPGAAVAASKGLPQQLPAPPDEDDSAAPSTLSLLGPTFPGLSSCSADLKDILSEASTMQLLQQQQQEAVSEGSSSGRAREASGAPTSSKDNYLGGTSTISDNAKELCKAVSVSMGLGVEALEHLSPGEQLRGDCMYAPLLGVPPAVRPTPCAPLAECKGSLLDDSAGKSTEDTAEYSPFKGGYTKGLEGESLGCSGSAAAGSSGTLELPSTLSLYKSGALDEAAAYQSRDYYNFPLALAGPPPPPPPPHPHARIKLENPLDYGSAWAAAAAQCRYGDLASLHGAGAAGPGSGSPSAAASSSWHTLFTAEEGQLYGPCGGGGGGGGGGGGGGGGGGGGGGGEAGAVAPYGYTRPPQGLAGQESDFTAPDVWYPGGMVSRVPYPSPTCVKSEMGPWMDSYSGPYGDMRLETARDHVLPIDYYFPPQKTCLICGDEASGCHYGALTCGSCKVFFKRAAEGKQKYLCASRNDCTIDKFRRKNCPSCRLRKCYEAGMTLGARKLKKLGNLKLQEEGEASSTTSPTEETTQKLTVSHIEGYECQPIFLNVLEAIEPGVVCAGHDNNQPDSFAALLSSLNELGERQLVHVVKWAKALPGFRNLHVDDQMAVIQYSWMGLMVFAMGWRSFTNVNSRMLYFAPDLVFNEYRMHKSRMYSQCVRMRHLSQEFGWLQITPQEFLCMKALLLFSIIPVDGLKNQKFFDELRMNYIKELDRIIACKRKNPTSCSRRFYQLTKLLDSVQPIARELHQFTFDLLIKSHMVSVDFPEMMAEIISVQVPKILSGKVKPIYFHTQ
# assay overview: Inhibition of human AR AF2 site expressed in human LNCap cells coexpressing eGFP -ARR2PB assessed as inhibition of transcriptional activity
# Format: cell-based
assay endpoint: pIC50
pIC50 is defined as minus the log10 of a concentration measured in mol/L.

Query: Bench note: what pIC50 did "Oc1ccc(C2Nc3cccc4cccc(c34)N2)cc1" show?
Response: 5.23

Query: And for "COc1ccc(C2Nc3cccc4cccc(c34)N2)cc1O" ?
Response: 4.46

Query: And for "CC1=NN(c2ccccc2)C(=O)/C1=N\Nc1ccc(C(=O)O)c(O)c1" ?
Response: 4.48

Query: And for "CCOc1cc(C2Nc3cccc4cccc(c34)N2)ccc1O" ?
Response: 4.95

Query: And for "COc1cc(C2Nc3cccc4cccc(c34)N2)ccc1O" ?
Response: 5.34

Query: And for "Oc1ccc(C2Nc3cccc4cccc(c34)N2)cc1O" ?
Response: 4.73
